EC50 reference
target: Trace amine-associated receptor 1 (Homo sapiens) (UniProt Q96RJ0); assay: TAAR1 agonists raising cellular cAMP, late-stage follow-up, cell-based, fluorescence, human, MDRUN002 (AID 1053177); conditions: CHO TAAR1-HGA16 cells, cAMP TR-FRET, agonist
Sequence (Q96RJ0 whole entry, looked up, the tested form may be a part): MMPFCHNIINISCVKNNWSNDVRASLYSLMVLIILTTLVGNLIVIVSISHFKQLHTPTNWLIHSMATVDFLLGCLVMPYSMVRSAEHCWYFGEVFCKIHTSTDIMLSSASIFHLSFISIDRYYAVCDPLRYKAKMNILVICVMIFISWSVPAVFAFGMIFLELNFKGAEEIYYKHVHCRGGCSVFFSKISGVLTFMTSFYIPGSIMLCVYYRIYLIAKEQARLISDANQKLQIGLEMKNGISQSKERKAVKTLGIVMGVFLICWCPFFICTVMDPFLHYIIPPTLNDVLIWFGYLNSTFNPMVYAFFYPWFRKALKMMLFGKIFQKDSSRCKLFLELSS
Activity calls are given as the source filed them.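 The calls were made as follows: active = EC50 of 10 µM or lower; inactive = EC50 above 10 µM.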

Look over these answered cases.
CC(CN1CCCC1Cc1ccccc1)C(=O)c1ccc2c(c1)OCCO2 (configuration not stated): 0.438 µM
Cc1ccc(C(=O)CCN2CCC(c3ccccc3)C2)cc1 (configuration not stated): 0.335 µM
O=C(CCN1CCC(c2ccccc2)C1)c1ccccc1 (configuration not stated): 0.0973 µM
COc1cc(C(=O)CCN2CCC(c3ccccc3)C2)cc(OC)c1OC (configuration not stated): 0.131 µM
N#Cc1c(C(F)(F)F)cc(-c2ccc(Cl)cc2)nc1SCC(=O)Nc1ncccn1: > 37.4 µM (inactive)
N#Cc1c(C(F)(F)F)cc(-c2ccc(Cl)cc2)nc1SCC(=O)N1CCCC1: > 37.4 µM (inactive)

# next compound below
Endpoint output: EC50 of N#Cc1c(C(F)(F)F)cc(-c2ccc(Cl)cc2)nc1SCC(=O)N1CCCCCC1 . Value? > 37.4 µM (inactive)

Source of measurements: PubChem BioAssay AID1053177
